Procedure details: basal RPMI8226 viability, no added stimulus, profiling panel, cell-based, calcein-AM fluorescence, 48 h, PK04 Diversity Set (AID 1166);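 further: cells grown under basal conditions without added stimulus; test concentration not given here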
Measurement parameters: RPMI8226 myeloma viability, higher = more signal
Assay endpoint: z-score

| Molecule | Endpoint value |
| --- | --- |
| COc1ccc(CCNC(=O)[C@@]2(C)c3ccccc3C(=O)N(Cc3ccc(OC(F)(F)F)cc3)[C@H]2c2ccc(CO)cc2)cc1 | -2.3 |
| C=C[C@H](C)[C@@H](OC(=O)Nc1ccc(SC)cc1)c1ccc(OCCO)cc1 | -1.81 |
| C=CCNC(=O)[C@H]1[C@@H]2C(=O)O[C@@H](c3ccccc3)[C@@H](c3ccccc3)N2[C@@H](c2ccc(OCCO)cc2)[C@]12C(=O)N(C(=O)OCCOC)c1ccc(C#CCNC(N)=O)cc12 | 1.27 |
| CN1C2C=C(c3ccc(CO)cc3)C(C3C(=O)N(C(N)=O)C(=O)C32)C1C1CC1 (centres undefined) | -0.773 |
| CC[C@@H](O[Si](C#C[Si](C(C)C)(C(C)C)C(C)C)(C(C)C)C(C)C)c1cn(Cc2cccc(Cl)c2)nn1 | 0.0929 |
| CCCCCCCCCCC(O)C1C=CC2C(=O)N(C)C(=O)C2N1Nc1ccccc1 (centres undefined) | -4.07 |
| COCCOC(=O)N1C(=O)[C@@]2(c3cc(C#CCC(C(=O)OC)C(=O)OC)ccc31)[C@H](C(=O)N1CCc3cc(OC)c(OC)cc3C1)[C@H]1C(=O)O[C@H](c3ccccc3)[C@H](c3ccccc3)N1[C@@H]2c1ccccc1OCCO | -0.619 |
| COc1ccc([Si](C)(C)[C@@H]2[C@@H](CC(=O)N3CCC[C@H]3CO)O[C@]3(C(=O)N(Cc4cccc(N5C(=O)c6cccc7cccc5c67)c4)c4ccccc43)[C@H]2C)cc1 | -4.33 |
| C=CCNC(=O)[C@@H]1[C@H]2C(=O)O[C@H](c3ccccc3)[C@H](c3ccccc3)N2[C@H](c2ccc(OCCO)cc2)[C@@]12C(=O)Nc1ccc(C#CC3=CCCCC3)cc12 | -2.66 |
| COCCOC(=O)N1C(=O)[C@@]2(c3cc(C#CCC(C(=O)OC)C(=O)OC)ccc31)[C@H](C(N)=O)[C@H]1C(=O)O[C@H](c3ccccc3)[C@H](c3ccccc3)N1[C@@H]2c1ccccc1OCCO | -3.48 |
| CC(C)(C)OC(=O)CC[C@]1(C(=O)N2CCOCC2)COC(c2ccc(OCCCO)cc2)=N1 | -0.785 |
| CCCCN1CC=CC23O[C@@H]4/C=C\CCCOC(=O)C4[C@H]2C(=O)N(CCCCCCO)[C@@H]3C1=O (some centres undefined) | 0.88 |
| CC(C)N1CC=CC23O[C@@H]4/C=C\CCCOC(=O)C4[C@H]2C(=O)N(C(C)CO)[C@@H]3C1=O (some centres undefined) | 0.629 |
| CCCCN1CC=CC23O[C@@H]4/C=C\CCC(C)OC(=O)C4[C@H]2C(=O)N(CCO)[C@@H]3C1=O (some centres undefined) | -1.19 |

----------
Target under test: Neurogenic locus notch homolog protein 3 (Homo sapiens)
Procedure details: NOTCH3 binders on small-molecule microarray, primary screen, biochemical, 635/667 nm fluorescence (AID 1096)
Measurement parameters: NOTCH3 binding, 635 nm fluorescence, higher = more signal
Values of composite z-score greater than or equal to 0.9 map to yes (1); values below map to no (0).

| Compound | Target under test | Discrete label |
| --- | --- | --- |
| CCCCC(=C=CC[C@@H](O)c1ccc(OCCO)cc1)CCO | Neurogenic locus notch homolog protein 3 (Homo sapiens) | no (0) |
| CCCC=C(CCC)[C@@H](NC(=O)c1ccc(C(=O)OC)cc1)c1ccc(C(=O)OC)cc1 | Neurogenic locus notch homolog protein 3 (Homo sapiens) | no (0) |
| OCCCc1cc[n+](Cc2cc3c(cc2Br)OCO3)cc1 | Neurogenic locus notch homolog protein 3 (Homo sapiens) | no (0) |
| [N-]=[N+]=Nc1ccccc1C[C@@]1(C(=O)NCc2ccccc2)N=C(c2ccc(OCCCO)cc2)O[C@@H]1c1ccccc1 | Neurogenic locus notch homolog protein 3 (Homo sapiens) | yes (1) |
| O=C(O)C1=CC[C@H]2C(=O)N(c3ccccc3)C(=O)[C@@H]12 | Neurogenic locus notch homolog protein 3 (Homo sapiens) | yes (1) |
| C=CCOC(=O)[C@@H]1[C@H]2C(=O)O[C@H](c3ccccc3)[C@H](c3ccccc3)N2[C@H](c2ccc(OCCOC(=O)[C@@H]3C[C@@H]4C(=O)N[C@@H](CC(C)C)C(=O)N4[C@@H]3c3ccc(O)cc3)cc2)[C@@]12C(=O)Nc1ccc(I)cc12 | Neurogenic locus notch homolog protein 3 (Homo sapiens) | yes (1) |
| O=C1C2C=CC(C(O)C3CC=CCC3)N(Nc3ccc([N+](=O)[O-])cc3)C2C(=O)N1c1ccccc1 (stereo not given) | Neurogenic locus notch homolog protein 3 (Homo sapiens) | yes (1) |
| CCCCN1CC=CC23O[C@@H]4C=CCCOC(=O)C4[C@H]2C(=O)N(CCO)[C@@H]3C1=O (stereo not given in full) | Neurogenic locus notch homolog protein 3 (Homo sapiens) | no (0) |
| C[C@]1(C(=O)NCC(F)(F)F)c2ccccc2C(=O)N(Cc2cc(C(F)(F)F)cc(C(F)(F)F)c2)[C@H]1c1ccc(CO)cc1 | Neurogenic locus notch homolog protein 3 (Homo sapiens) | no (0) |
| COc1ccc(NN2C(C(O)c3ccccc3)C=CC3C(=O)N(C4CCCCC4)C(=O)C32)cc1 (stereo not given) | Neurogenic locus notch homolog protein 3 (Homo sapiens) | yes (1) |
| CC[C@@H](O[Si](C#C[Si](C(C)C)(C(C)C)C(C)C)(C(C)C)C(C)C)c1cn(Cc2cccc(Cl)c2)nn1 | Neurogenic locus notch homolog protein 3 (Homo sapiens) | yes (1) |
| C=CCNC(=O)[C@@H]1[C@H]2C(=O)O[C@H](c3ccccc3)[C@H](c3ccccc3)N2[C@H](c2ccc(OCCO)cc2)[C@@]12C(=O)Nc1ccc(C#CCNC(N)=O)cc12 | Neurogenic locus notch homolog protein 3 (Homo sapiens) | no (0) |
| CCCNC(=O)[C@@]1(Sc2ccc(C)cc2)CC(=O)N(Cc2cc(C(F)(F)F)cc(C(F)(F)F)c2)[C@@H]1c1ccc(CO)cc1 | Neurogenic locus notch homolog protein 3 (Homo sapiens) | no (0) |
| CC(C)(C)OC(=O)CC[C@]1(C(N)=O)N=C(c2ccc(OCCCO)cc2)O[C@H]1c1ccccc1N=[N+]=[N-] | Neurogenic locus notch homolog protein 3 (Homo sapiens) | no (0) |
| [N-]=[N+]=NCc1ccccc1[C@H]1OC(c2ccc(OCCCO)cc2)=N[C@@]1(Cc1ccccc1N=[N+]=[N-])C(=O)O | Neurogenic locus notch homolog protein 3 (Homo sapiens) | yes (1) |
